assay: Moisture- and heat-resistances test of thin films; assay type: physicochemical; settings: thin film, 80° C., relative humidity 80%, 100 hours
Catalogue of Δλmax(b) (change in absorption maximum wavelength) values
Entry format: amount then unit.

Problem: Please look at this compound and report its Δλmax(b) (change in absorption maximum wavelength): `CCCCn1c([O-])c(/C=N/[N-]c2nnnn2-c2ccccc2)c(CCC)c(C#N)c1=O.CCCCn1c([O-])c(/C=N/[N-]c2nnnn2-c2ccccc2)c(CCC)c(C#N)c1=O.CCCCn1c([O-])c(/C=N/[N-]c2nnnn2-c2ccccc2)c(CCC)c(C#N)c1=O.CCCCn1c([O-])c(/C=N/[N-]c2nnnn2-c2ccccc2)c(CCC)c(C#N)c1=O.[Co+3].[Co+3].c1cc2ccc3ccc[n+]4c3c2[n+](c1)CCC4`
Result: 0 nm

Problem: Please look at this compound and report its Δλmax(b) (change in absorption maximum wavelength): `Cc1c(/C=N/[N-]c2nc3ccccc3o2)c([O-])n(Cc2ccco2)c(=O)c1C#N.Cc1c(/C=N/[N-]c2nc3ccccc3o2)c([O-])n(Cc2ccco2)c(=O)c1C#N.Cc1c(/C=N/[N-]c2nc3ccccc3o2)c([O-])n(Cc2ccco2)c(=O)c1C#N.Cc1c(/C=N/[N-]c2nc3ccccc3o2)c([O-])n(Cc2ccco2)c(=O)c1C#N.Fc1cccc(-[n+]2ccc(-c3cc[n+](-c4cccc(F)c4)cc3)cc2)c1.[Co+3].[Co+3]`
Result: 0.5 nm

Now look at this one.
Problem: Please look at this compound and report its Δλmax(b) (change in absorption maximum wavelength): `Cc1c(/C=N/[N-]c2nnnn2-c2ccccc2)c([O-])n(CC(C)C)c(=O)c1C#N.Cc1c(/C=N/[N-]c2nnnn2-c2ccccc2)c([O-])n(CC(C)C)c(=O)c1C#N.Cc1c(/C=N/[N-]c2nnnn2-c2ccccc2)c([O-])n(CC(C)C)c(=O)c1C#N.Cc1c(/C=N/[N-]c2nnnn2-c2ccccc2)c([O-])n(CC(C)C)c(=O)c1C#N.[Co+3].[Co+3].c1ccc(-[n+]2ccc(-c3cc[n+](-c4ccccc4)cc3)cc2)cc1`
Result: 0 nm

====

Catalogue of Δλmax(b) (change in absorption maximum wavelength) values
assay: Moisture- and heat-resistances test of thin films; type: physicochemical; settings: thin film, 80° C., relative humidity 80%, 100 hours
Respond numerically; units are nm and should not be typed.

Some compounds with recorded Δλmax(b) (change in absorption maximum wavelength):
Problem: Please look at this compound and report its Δλmax(b) (change in absorption maximum wavelength): `Cc1c(/C=N/[N-]c2nnnn2-c2ccccc2)c([O-])n(CC(C)C)c(=O)c1C#N.Cc1c(/C=N/[N-]c2nnnn2-c2ccccc2)c([O-])n(CC(C)C)c(=O)c1C#N.[Co+3].c1ccc(-c2nn(-c3ccccc3)[n+](-c3ccccc3)n2)cc1`
Result: 0

Problem: Please look at this compound and report its Δλmax(b) (change in absorption maximum wavelength): `Cc1c(/C=N/[N-]c2nnnn2-c2ccccc2)c([O-])n(CC(C)C)c(=O)c1C#N.Cc1c(/C=N/[N-]c2nnnn2-c2ccccc2)c([O-])n(CC(C)C)c(=O)c1C#N.Cc1c(/C=N/[N-]c2nnnn2-c2ccccc2)c([O-])n(CC(C)C)c(=O)c1C#N.Cc1c(/C=N/[N-]c2nnnn2-c2ccccc2)c([O-])n(CC(C)C)c(=O)c1C#N.[Co+3].[Co+3].c1cc[n+]2c(c1)-c1cccc[n+]1CCC2`
Result: 0

Problem: Please look at this compound and report its Δλmax(b) (change in absorption maximum wavelength): `Cc1c(/C=N/[N-]c2nnnn2-c2ccccc2)c([O-])n(CC(C)C)c(=O)c1C#N.Cc1c(/C=N/[N-]c2nnnn2-c2ccccc2)c([O-])n(CC(C)C)c(=O)c1C#N.Cc1c(/C=N/[N-]c2nnnn2-c2ccccc2)c([O-])n(CC(C)C)c(=O)c1C#N.Cc1c(/C=N/[N-]c2nnnn2-c2ccccc2)c([O-])n(CC(C)C)c(=O)c1C#N.[Co+3].[Co+3].c1ccc2c(c1)ccc[n+]2CCCC[n+]1cccc2ccccc21`
Result: 0.5

Problem: Please look at this compound and report its Δλmax(b) (change in absorption maximum wavelength): `CCCCn1c([O-])c(/C=N/[N-]c2nnnn2-c2ccccc2)c(C)c(C#N)c1=O.CCCCn1c([O-])c(/C=N/[N-]c2nnnn2-c2ccccc2)c(C)c(C#N)c1=O.CCCCn1c([O-])c(/C=N/[N-]c2nnnn2-c2ccccc2)c(C)c(C#N)c1=O.CCCCn1c([O-])c(/C=N/[N-]c2nnnn2-c2ccccc2)c(C)c(C#N)c1=O.Fc1cccc(-[n+]2ccc(-c3cc[n+](-c4cccc(F)c4)cc3)cc2)c1.[Co+3].[Co+3]`
Result: 0.5

Problem: Please look at this compound and report its Δλmax(b) (change in absorption maximum wavelength): `Cc1c(/C=N/[N-]c2nnnn2-c2ccccc2)c([O-])n(Cc2ccccc2)c(=O)c1C#N.Cc1c(/C=N/[N-]c2nnnn2-c2ccccc2)c([O-])n(Cc2ccccc2)c(=O)c1C#N.Cc1c(/C=N/[N-]c2nnnn2-c2ccccc2)c([O-])n(Cc2ccccc2)c(=O)c1C#N.Cc1c(/C=N/[N-]c2nnnn2-c2ccccc2)c([O-])n(Cc2ccccc2)c(=O)c1C#N.[Co+3].[Co+3].c1cc[n+]2c(c1)-c1cccc[n+]1CCC2`
Result: 0

New cases:
Problem: Please look at this compound and report its Δλmax(b) (change in absorption maximum wavelength): `COc1ccc2cc3[n+](cc2c1OC)CCc1cc2c(cc1-3)OCO2.Cc1c(/C=N/[N-]c2nnnn2-c2ccccc2)c([O-])n(CC(C)C)c(=O)c1C#N.Cc1c(/C=N/[N-]c2nnnn2-c2ccccc2)c([O-])n(CC(C)C)c(=O)c1C#N.[Co+3]`
Result: 0

Problem: Please look at this compound and report its Δλmax(b) (change in absorption maximum wavelength): `Cc1c(/C=N/[N-]c2nnnn2-c2ccccc2)c([O-])n(CC(C)C)c(=O)c1C#N.Cc1c(/C=N/[N-]c2nnnn2-c2ccccc2)c([O-])n(CC(C)C)c(=O)c1C#N.Cc1c(/C=N/[N-]c2nnnn2-c2ccccc2)c([O-])n(CC(C)C)c(=O)c1C#N.Cc1c(/C=N/[N-]c2nnnn2-c2ccccc2)c([O-])n(CC(C)C)c(=O)c1C#N.[Co+3].[Co+3].c1ccc2c[n+](CCCCCC[n+]3ccc4ccccc4c3)ccc2c1`
Result: 0

Problem: Please look at this compound and report its Δλmax(b) (change in absorption maximum wavelength): `Cc1c(/C=N/[N-]c2nnnn2-c2ccccc2)c([O-])n(Cc2ccccc2)c(=O)c1C#N.Cc1c(/C=N/[N-]c2nnnn2-c2ccccc2)c([O-])n(Cc2ccccc2)c(=O)c1C#N.Cc1c(/C=N/[N-]c2nnnn2-c2ccccc2)c([O-])n(Cc2ccccc2)c(=O)c1C#N.Cc1c(/C=N/[N-]c2nnnn2-c2ccccc2)c([O-])n(Cc2ccccc2)c(=O)c1C#N.[Co+3].[Co+3].c1ccc(CC[N+]23CC[N+](CCc4ccccc4)(CC2)CC3)cc1`
Result: 0

Problem: Please look at this compound and report its Δλmax(b) (change in absorption maximum wavelength): `CCn1c([O-])c(/C=N/[N-]C(=O)c2ccc(C(F)(F)F)cc2)c(C)c(C#N)c1=O.CCn1c([O-])c(/C=N/[N-]C(=O)c2ccc(C(F)(F)F)cc2)c(C)c(C#N)c1=O.CCn1c([O-])c(/C=N/[N-]C(=O)c2ccc(C(F)(F)F)cc2)c(C)c(C#N)c1=O.CCn1c([O-])c(/C=N/[N-]C(=O)c2ccc(C(F)(F)F)cc2)c(C)c(C#N)c1=O.Oc1ccc(-c2ccccc2)cc1-[n+]1ccc(-c2cc[n+](-c3cc(-c4ccccc4)ccc3O)cc2)cc1.[Co+3].[Co+3]`
Result: 0

====

Catalogue of I^a/I^a0 (absorbance ratio at absorption maximum after/before lightfastness test) values
test: Lightfastness test of thin films; type: physicochemical; conditions: thin film on glass plate, UV fluorescent lamps 15 W/m^2, 45° C., 10 hours
Lab note: write the figure by itself, no unit.

Problem: Please look at this compound and report its I^a/I^a0 (absorbance ratio at absorption maximum after/before lightfastness test): `Cc1c(/C=N/[N-]c2nnnn2-c2ccccc2)c([O-])n(CC(C)C)c(=O)c1C#N.Cc1c(/C=N/[N-]c2nnnn2-c2ccccc2)c([O-])n(CC(C)C)c(=O)c1C#N.Cc1c(/C=N/[N-]c2nnnn2-c2ccccc2)c([O-])n(CC(C)C)c(=O)c1C#N.Cc1c(/C=N/[N-]c2nnnn2-c2ccccc2)c([O-])n(CC(C)C)c(=O)c1C#N.[Co+3].[Co+3].c1ccc2c[n+](CCCCCCCCCC[n+]3ccc4ccccc4c3)ccc2c1`
Result: 0.90

Now look at this one.
Problem: Please look at this compound and report its I^a/I^a0 (absorbance ratio at absorption maximum after/before lightfastness test): `Cc1c(/C=N/[N-]c2nnnn2-c2ccccc2)c([O-])n(CC(C)C)c(=O)c1C#N.Cc1c(/C=N/[N-]c2nnnn2-c2ccccc2)c([O-])n(CC(C)C)c(=O)c1C#N.Cc1c(/C=N/[N-]c2nnnn2-c2ccccc2)c([O-])n(CC(C)C)c(=O)c1C#N.Cc1c(/C=N/[N-]c2nnnn2-c2ccccc2)c([O-])n(CC(C)C)c(=O)c1C#N.[Co+3].[Co+3].c1ccc(-[n+]2ccc(-c3cc[n+](-c4ccccc4)cc3)cc2)cc1`
Result: 0.87

The values you see were collected from patent US20130123494A1.
